Tested on: Puccinia recondita
ASSAY NOTES: Curative action against Puccinia recondita on wheat (brown rust of wheat)
Type: in vivo
CONDITION NOTES: single active ingredient, 1.25 ppm in the spray liquor, 7 days
PROPERTY NAME: Efficacy in % of the untreated control (%)
Numbers only, in %.

Solved cases below.
compound="CC(C)(C)C(O)(CCc1ccc(Cl)cc1)n1cncn1 (stereo not shown)" number=0
compound=CCCN(CCOc1c(Cl)cc(Cl)cc1Cl)C(=O)n1ccnc1 number=0
compound="CCCC1COC(Cn2cncn2)(c2ccc(Cl)cc2Cl)O1 (racemic)" number=0

Now for another entry.
QUERY: Report Efficacy in % of the untreated control for "C[Si](Cn1cncn1)(c1ccc(F)cc1)c1ccc(F)cc1"
RESULT: 0
